Cited source for all entries: ChEMBL document CHEMBL5137033

# Assay system: NLR family CARD domain-containing protein 4 (Mus musculus) (UniProt Q3UP24)
# Sequence (Q3UP24 whole entry, the tested form may be a part): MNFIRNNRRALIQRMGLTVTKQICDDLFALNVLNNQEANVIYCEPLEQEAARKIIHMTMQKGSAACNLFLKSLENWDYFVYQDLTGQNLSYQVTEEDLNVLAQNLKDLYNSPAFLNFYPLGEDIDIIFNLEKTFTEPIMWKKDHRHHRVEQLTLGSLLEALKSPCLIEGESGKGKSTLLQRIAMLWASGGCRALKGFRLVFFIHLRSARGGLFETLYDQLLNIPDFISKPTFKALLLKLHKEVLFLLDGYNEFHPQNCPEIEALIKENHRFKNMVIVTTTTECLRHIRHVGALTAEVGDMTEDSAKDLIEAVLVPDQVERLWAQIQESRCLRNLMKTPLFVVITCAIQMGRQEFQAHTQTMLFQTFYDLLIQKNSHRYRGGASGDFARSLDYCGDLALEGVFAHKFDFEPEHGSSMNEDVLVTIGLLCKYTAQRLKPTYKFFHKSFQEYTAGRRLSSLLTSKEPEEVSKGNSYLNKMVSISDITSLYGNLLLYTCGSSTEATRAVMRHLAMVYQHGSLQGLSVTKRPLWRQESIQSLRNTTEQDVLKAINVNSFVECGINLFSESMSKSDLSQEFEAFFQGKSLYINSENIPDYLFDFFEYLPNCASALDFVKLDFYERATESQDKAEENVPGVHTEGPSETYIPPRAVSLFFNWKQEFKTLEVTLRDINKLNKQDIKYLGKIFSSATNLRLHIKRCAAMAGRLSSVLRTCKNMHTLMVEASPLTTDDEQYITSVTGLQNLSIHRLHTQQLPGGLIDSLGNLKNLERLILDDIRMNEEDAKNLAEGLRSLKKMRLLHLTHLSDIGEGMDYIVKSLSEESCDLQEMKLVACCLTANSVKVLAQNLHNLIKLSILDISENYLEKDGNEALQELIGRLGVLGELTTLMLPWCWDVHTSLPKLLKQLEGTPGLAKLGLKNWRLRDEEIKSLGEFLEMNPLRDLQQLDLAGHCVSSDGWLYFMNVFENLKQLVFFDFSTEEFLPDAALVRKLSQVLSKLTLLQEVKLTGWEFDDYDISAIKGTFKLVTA
# Assay procedure: Inhibition of NLRC4 inflammasome in LPS-primed mouse J774.A1 cells assessed as IL-1beta secretion at 10 uM preincubated for 1 hr followed by flagellin addition and measured after 6 hrs by ELISA relative to control
# Type: cell-based
# Set-up: scale not given: the % may be the effect or the level left
# Condition details: time 7.0 hrs
Value kind: Activity (%)

chem_smiles=C#CCNS(=O)(=O)c1ccc(CCN(Cc2ccccc2OCCC)C(=O)Cc2ccsc2)cc1 value_observed=70.1
chem_smiles=C#CCNS(=O)(=O)c1ccc(CCN(Cc2cccc3c2OCO3)C(=O)Cc2ccc(F)cc2)cc1 value_observed=102
chem_smiles=C#CCNS(=O)(=O)c1ccc(CCN(Cc2ccco2)C(=O)Cc2ccsc2)cc1 value_observed=76.2

(I) C#CCNS(=O)(=O)c1ccc(CCN(Cc2cccc3c2OCO3)C(=O)Cc2ccsc2)cc1
(II) C#CCS(=O)(=O)c1ccc(CCN(Cc2cc(Cl)ccc2OCCC)C(=O)c2csc3ccccc23)cc1
Which one would you say has the larger Activity value: I , or II ? Please identify the chosen entry by its label.
I
(I: 66.9%, II: 29.1%)

(P) C#CCNS(=O)(=O)c1ccc(CCN(Cc2cc(Cl)ccc2O)C(=O)Cc2ccsc2)cc1
(Q) C#CCN(C)S(=O)(=O)c1ccc(CCN(Cc2cc(Cl)ccc2OCCC)C(=O)Cc2ccsc2)cc1
// compare: P vs Q , metric Activity, want the smaller Please identify the chosen entry by its label.
P
